# Test system: Acetic Acid Induced Colitis
# Assay name: Inhibition of Acetic Acid Induced Colitis
# Format: in vivo, Male Sprague-Dawley rats
# Condition info: rat; 30 mg/kg oral, 2 h before 2 ml of 2.5% acetic acid intracolonic enema, second dose 6 h after enema; colon lesions scored 0-4 twenty four hours later vs vehicle
Recorded metric: % Inhibition (percentage of lesion inhibition) (%)
One number for each entry, in %.

Previously resolved entries follow.
COC(=O)c1ccc(CN2CSC(Cc3cc(C(C)(C)C)c(O)c(C(C)(C)C)c3)C2=O)cc1 (stereo not shown)	11
CC(C)(C)c1cc(CC(S)C(=O)O)cc(C(C)(C)C)c1O (stereo not shown)	18
C[C@H](c1ccccc1)N1CS[C@@H](Cc2cc(C(C)(C)C)c(O)c(C(C)(C)C)c2)C1=O	36

Switching to the query record.
Query block: Annotate the compound C[C@H](c1ccccc1)N1CS[C@H](Cc2cc(C(C)(C)C)c(O)c(C(C)(C)C)c2)C1=O with its measured % Inhibition (percentage of lesion inhibition).
Result block: 30
